Target: Equilibrative nucleoside transporter 1 (Homo sapiens, UniProt Q99808); further: assay procedure not described here
Sequence (Q99808 whole entry): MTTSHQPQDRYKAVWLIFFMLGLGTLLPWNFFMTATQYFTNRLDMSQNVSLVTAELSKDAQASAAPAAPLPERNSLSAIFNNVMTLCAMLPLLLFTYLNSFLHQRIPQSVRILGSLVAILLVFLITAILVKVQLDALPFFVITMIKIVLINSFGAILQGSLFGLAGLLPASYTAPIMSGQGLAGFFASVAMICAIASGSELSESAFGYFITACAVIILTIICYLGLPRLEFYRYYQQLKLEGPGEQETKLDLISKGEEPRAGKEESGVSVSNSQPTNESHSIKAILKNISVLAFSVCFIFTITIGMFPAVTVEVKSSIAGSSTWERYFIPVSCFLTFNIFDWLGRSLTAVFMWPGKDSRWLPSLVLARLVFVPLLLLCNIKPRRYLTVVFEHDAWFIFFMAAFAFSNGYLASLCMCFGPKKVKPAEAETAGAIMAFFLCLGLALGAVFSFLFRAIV
Collected AC50 values appear next to each entry.

| molecule | AC50 |
| --- | --- |
| COc1ccc(-c2cc(=S)ss2)cc1 [ANETHOLTRITHION] | 5.4 µM |

Ask: Return reported AC50; argument: CC(NC(C)(C)C)C(=O)c1cccc(Cl)c1 (centres undefined) [BUPROPION]
Result: > 30 µM

Ask: Record: CC(C)(C)NCC(O)COc1cccc2c1CC(O)C(O)C2 (centres undefined) [NADOLOL]
Result: > 10 µM

Ask: Record: C[C@H](CCC(=O)O)[C@H]1CC[C@H]2[C@@H]3[C@H](O)C[C@@H]4C[C@H](O)CC[C@]4(C)[C@H]3CC[C@]12C [CHENODIOL]
Result: > 30 µM

----------
Molecular target: Neuropeptide Y receptor type 1 (Homo sapiens, UniProt P25929); further: assay procedure not described here
Sequence (P25929 whole entry): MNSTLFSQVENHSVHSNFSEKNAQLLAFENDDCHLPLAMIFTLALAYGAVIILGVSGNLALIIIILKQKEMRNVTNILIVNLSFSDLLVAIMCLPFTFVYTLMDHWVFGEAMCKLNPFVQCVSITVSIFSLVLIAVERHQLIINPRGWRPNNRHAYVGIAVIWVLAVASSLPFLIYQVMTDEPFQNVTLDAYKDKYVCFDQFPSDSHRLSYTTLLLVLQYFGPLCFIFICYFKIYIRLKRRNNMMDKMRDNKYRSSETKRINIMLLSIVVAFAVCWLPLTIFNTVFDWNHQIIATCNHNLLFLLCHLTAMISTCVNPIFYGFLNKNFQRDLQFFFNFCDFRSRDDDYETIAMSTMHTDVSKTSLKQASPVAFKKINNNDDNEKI
Collected AC50 values appear next to each entry.

Check out these entries, answers already filled in.
| compound | measured-on | AC50 |
| --- | --- | --- |
| O=c1[nH]cc(F)c(=O)[nH]1 | Neuropeptide Y receptor type 1 (Homo sapiens, UniProt P25929) | > 30 µM |
| N=C(N)NC(=O)Cc1c(Cl)cccc1Cl | Neuropeptide Y receptor type 1 (Homo sapiens, UniProt P25929) | > 30 µM |
| COC(=O)c1ccc2c(c1)NC(=O)/C2=C(\Nc1ccc(N(C)C(=O)CN2CCN(C)CC2)cc1)c1ccccc1 | Neuropeptide Y receptor type 1 (Homo sapiens, UniProt P25929) | > 30 µM |
| CN(C)[C@@H]1C(O)=C(C(=O)NCN2CCCC2)C(=O)[C@@]2(O)C(O)=C3C(=O)c4c(O)cccc4[C@@](C)(O)[C@H]3C[C@@H]12 | Neuropeptide Y receptor type 1 (Homo sapiens, UniProt P25929) | > 10 µM |
| C[C@]12C=CC(=O)C=C1C(Cl)=C[C@@H]1[C@@H]2[C@@H](O)C[C@@]2(C)[C@H]1CC[C@]2(O)C(=O)CO | Neuropeptide Y receptor type 1 (Homo sapiens, UniProt P25929) | > 30 µM |

Ask: Return reported AC50; argument: CCN(CCO)CCCC(C)Nc1ccnc2cc(Cl)ccc12 (configuration not stated) [HYDROXYCHLOROQUINE]
Result: > 10 µM

Ask: Record: O=C(O[C@H]1C[N+]2(CCCOc3ccccc3)CCC1CC2)C(O)(c1cccs1)c1cccs1 [ACLIDINIUM BROMIDE]
Result: > 30 µM

Ask: Record: "Cc1cnc(Nc2ccc(OCCN3CCCC3)cc2)nc1Nc1cccc(S(=O)(=O)NC(C)(C)C)c1"
Result: > 30 µM

Ask: Record: CCC(=O)c1ccc2c(c1)N(CC(C)N(C)C)c1ccccc1S2 (configuration not stated)
Result: > 10 µM

Ask: Record: CC1=C(/C=C/C(C)=C/C=C/C(C)=C/C(=O)Oc2c(C)c(C)c3c(c2C)CCC(C)(CCCC(C)CCCC(C)CCCC(C)C)O3)C(C)(C)CCC1 (configuration not stated)
Result: > 30 µM

----------
Collected AC50 values appear next to each entry.
Molecular target: 5-hydroxytryptamine receptor 2B (Homo sapiens); further: assay procedure not described here
Sequence (P41595 whole entry): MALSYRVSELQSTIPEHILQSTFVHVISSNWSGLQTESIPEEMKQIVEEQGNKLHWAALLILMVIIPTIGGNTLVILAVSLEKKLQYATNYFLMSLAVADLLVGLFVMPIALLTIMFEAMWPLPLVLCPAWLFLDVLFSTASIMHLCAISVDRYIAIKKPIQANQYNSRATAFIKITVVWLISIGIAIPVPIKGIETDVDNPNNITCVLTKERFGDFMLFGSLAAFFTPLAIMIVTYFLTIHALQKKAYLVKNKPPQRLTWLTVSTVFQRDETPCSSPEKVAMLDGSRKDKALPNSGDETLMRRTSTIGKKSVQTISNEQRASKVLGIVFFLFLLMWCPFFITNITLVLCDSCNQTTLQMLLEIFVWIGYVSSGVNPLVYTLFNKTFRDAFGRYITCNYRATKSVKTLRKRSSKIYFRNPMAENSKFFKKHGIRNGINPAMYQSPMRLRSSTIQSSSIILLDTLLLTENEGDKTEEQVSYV
Format: functional, cell-based

| compound | measured-on | AC50 |
| --- | --- | --- |
| COc1cccc2c1C(=O)c1c(O)c3c(c(O)c1C2=O)C[C@@](O)(C(=O)CO)C[C@@H]3O[C@H]1C[C@H](N)[C@H](O)[C@H](C)O1 | 5-hydroxytryptamine receptor 2B (Homo sapiens) | 15 µM |

Ask: Return reported AC50; argument: CC(=O)OCC(=O)[C@@]1(O)CC[C@H]2[C@@H]3CCC4=CC(=O)CC[C@]4(C)[C@@]3(F)[C@@H](O)C[C@@]21C [FLUDROCORTISONE ACETATE]
Result: > 30 µM

Ask: Record: "CN1C(=O)CN=C(c2ccccc2F)c2cc([N+](=O)[O-])ccc21"
Result: > 10 µM

Ask: Record: Cc1c(C)c2c(c(C)c1O)CCC(C)(COc1ccc(CC3SC(=O)NC3=O)cc1)O2 (stereo not drawn)
Result: 2 µM

Ask: Record: "C[C@]12C=CC(=O)C=C1C(Cl)=C[C@@H]1[C@@H]2[C@@H](O)C[C@@]2(C)[C@H]1CC[C@]2(O)C(=O)CO"
Result: > 30 µM

Ask: Record: "CN(Cc1ccc(C(C)(C)C)cc1)Cc1cccc2ccccc12"
Result: > 10 µM

----------
Here we list compounds with their recorded AC50 when tested on Kappa-type opioid receptor (Homo sapiens). Further: assay procedure not described here.
Sequence (P41145 whole entry): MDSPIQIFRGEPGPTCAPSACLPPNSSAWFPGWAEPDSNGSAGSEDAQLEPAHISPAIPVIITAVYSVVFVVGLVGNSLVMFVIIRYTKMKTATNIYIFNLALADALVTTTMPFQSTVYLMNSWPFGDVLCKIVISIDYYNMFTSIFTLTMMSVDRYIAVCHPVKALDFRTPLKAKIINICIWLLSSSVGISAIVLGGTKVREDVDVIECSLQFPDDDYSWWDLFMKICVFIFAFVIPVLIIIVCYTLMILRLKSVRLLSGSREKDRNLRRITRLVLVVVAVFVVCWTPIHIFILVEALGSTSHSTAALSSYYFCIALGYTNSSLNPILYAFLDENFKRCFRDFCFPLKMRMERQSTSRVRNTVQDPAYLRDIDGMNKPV

| compound | AC50 |
| --- | --- |
| CN1C(=O)CN=C(c2ccccc2F)c2cc([N+](=O)[O-])ccc21 | 6.39 µM |
| CCN(CC)C(C)C(=O)c1ccccc1 (stereo not drawn) | > 10 µM |

Ask: Return reported AC50; argument: Cc1ccc(S(=O)(=O)NC(=O)N[C@H]2[C@H]3CC[C@@](C)([C@H]2O)C3(C)C)cc1 [GLIBORNURIDE]
Result: > 30 µM

----------
Biological target: Thromboxane A2 receptor (Homo sapiens, UniProt P21731); further: assay procedure not described here
Sequence (P21731 whole entry): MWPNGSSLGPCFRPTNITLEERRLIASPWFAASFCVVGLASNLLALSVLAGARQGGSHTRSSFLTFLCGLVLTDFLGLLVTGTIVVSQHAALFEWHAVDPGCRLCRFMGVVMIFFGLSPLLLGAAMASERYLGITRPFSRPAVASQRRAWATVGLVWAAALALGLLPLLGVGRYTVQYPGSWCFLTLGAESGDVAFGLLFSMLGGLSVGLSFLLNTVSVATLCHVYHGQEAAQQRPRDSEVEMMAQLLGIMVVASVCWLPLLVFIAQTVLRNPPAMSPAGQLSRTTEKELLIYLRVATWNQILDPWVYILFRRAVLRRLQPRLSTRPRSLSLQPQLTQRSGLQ
Format: functional, cell-based
property-label: AC50

| molecule | data-value |
| --- | --- |
| Cc1cnc(C(=O)O)c[n+]1[O-] | > 30 µM |
| CC(=O)OCC(=O)[C@@]1(O)CC[C@H]2[C@@H]3C[C@H](C)C4=CC(=O)C=C[C@]4(C)[C@H]3[C@@H](O)C[C@@]21C [METHYLPREDNISOLONE ACETATE] | > 30 µM |
| CN1CCC(N(Cc2cccs2)c2ccccc2)CC1 | > 30 µM |
| C[C@@H]1CN(c2c(F)c(N)c3c(=O)c(C(=O)O)cn(C4CC4)c3c2F)C[C@H](C)N1 | > 30 µM |
| CN1CCc2c(c3ccccc3n2Cc2ccccc2)C1 [MEBHYDROLIN] | > 30 µM |
| O=c1[nH]cc(F)c(=O)[nH]1 | > 30 µM |

Ask: Return reported AC50; argument: "Nc1ccn(C[C@@H](CO)OCP(=O)(O)O)c(=O)n1"
Result: > 30 µM

Ask: Record: "COC(=O)Nc1nc2cc(C(=O)c3ccc(F)cc3)ccc2[nH]1"
Result: > 30 µM

Ask: Record: "Cc1ccc(Cl)c(Nc2ccccc2C(=O)O)c1Cl"
Result: 20 µM

----------
Target: Muscarinic acetylcholine receptor M2 (Homo sapiens); further: assay procedure not described here
Sequence (P08172 whole entry): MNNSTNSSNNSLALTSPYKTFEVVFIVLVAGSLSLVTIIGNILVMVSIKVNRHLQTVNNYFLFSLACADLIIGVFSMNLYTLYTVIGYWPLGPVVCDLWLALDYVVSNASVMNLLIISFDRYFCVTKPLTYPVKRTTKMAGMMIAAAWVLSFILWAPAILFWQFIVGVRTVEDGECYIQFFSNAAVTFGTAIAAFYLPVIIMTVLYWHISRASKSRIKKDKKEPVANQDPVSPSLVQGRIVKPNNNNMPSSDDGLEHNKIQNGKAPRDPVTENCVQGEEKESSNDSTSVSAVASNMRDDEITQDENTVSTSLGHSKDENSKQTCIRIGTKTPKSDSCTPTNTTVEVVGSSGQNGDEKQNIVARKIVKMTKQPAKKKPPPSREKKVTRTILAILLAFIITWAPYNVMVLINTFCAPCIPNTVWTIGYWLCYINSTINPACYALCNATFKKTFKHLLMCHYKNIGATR
Type: functional, cell-based
property-label: AC50

Check out these entries, answers already filled in.
| compound | AC50 |
| --- | --- |
| O=C(O)c1nn(Cc2ccc(Cl)cc2Cl)c2ccccc12 | > 30 µM |
| CO[C@@H]1[C@@H](OC(N)=O)[C@@H](O)[C@H](Oc2ccc3c(O)c(NC(=O)c4ccc(O)c(CC=C(C)C)c4)c(=O)oc3c2C)OC1(C)C | > 30 µM |
| C[C@@H](O)[C@H]1C(=O)N2C(C(=O)O)=C(SCCN=CN)C[C@H]12 [IMIPENEM ANHYDROUS] | > 300 µM |
| CCCO[C@H]1[C@@H]([C@@H](COCc2ccc(Cl)cc2)OCc2ccc(Cl)cc2)OC(OCC)[C@@H]1O (stereo partly drawn) [CLOBENOSIDE] | > 30 µM |
| Cc1cccc(Nc2ccncc2S(=O)(=O)NC(=O)NC(C)C)c1 [TORSEMIDE] | > 10 µM |

Ask: Return reported AC50; argument: "CCN(CC)CCCN(c1ccccc1)C1Cc2ccccc2C1"
Result: > 30 µM

Ask: Record: "CNCCc1ccccn1"
Result: > 30 µM

Ask: Record: CC1=C(/C=C/C(C)=C/C=C/C(C)=C/C(=O)Oc2c(C)c(C)c3c(c2C)CCC(C)(CCCC(C)CCCC(C)CCCC(C)C)O3)C(C)(C)CCC1 (stereo not drawn)
Result: > 30 µM

Ask: Record: "C[C@]12CCC(=O)C=C1C=C[C@@H]1[C@@H]2CC[C@@]2(C)[C@H]1CC[C@@]21CCC(=O)O1"
Result: 20 µM

Ask: Record: CCC(=O)c1ccc2c(c1)N(CC(C)N(C)C)c1ccccc1S2 (stereo not drawn)
Result: 1.1 µM

Ask: Record: CCOC(=O)O[C@]1(C(=O)COC(=O)CC)CC[C@H]2[C@@H]3CCC4=CC(=O)C=C[C@]4(C)[C@H]3[C@@H](O)C[C@@]21C [PREDNICARBATE]
Result: > 10 µM

Ask: Record: "CC[N+](CC)(CCNC(=O)C(=O)NCC[N+](CC)(CC)Cc1ccccc1Cl)Cc1ccccc1Cl"
Result: 2.2 µM

Ask: Record: "CN(C)[C@@H]1C(O)=C(C(=O)NCN2CCCC2)C(=O)[C@@]2(O)C(O)=C3C(=O)c4c(O)cccc4[C@@](C)(O)[C@H]3C[C@@H]12"
Result: > 10 µM

Entry source: ChEMBL document CHEMBL5291721
